- Tested on: WPMY1-TUBA1B-RELA
- ASSAY_DETAILS: phenotypically active (imaging signature differs from DMSO and reproducible) at any of 0.3-9 uM (binary (1 = active, 0 = inactive)); higher = active
- SETUP_CONDITIONS: treatment time: 24 h
Counter-ions that a name gives are not always drawn.
Some molecules, each annotated with its measured phenotypically active.
Note: the reply should be a number with no unit written.

Reference set (3 entries):
[[record]]
molecule = "COc1ccnc(CS(=O)c2nc3cc(OC(F)F)ccc3[nH]2)c1OC (centres undefined)"
measured_target = "WPMY1-TUBA1B-RELA"
readout_number = 0

[[record]]
molecule = "CN1CCN(C(=O)CN[C@H]2C[C@@H]2c2ccc(OCc3ccccc3)cc2)CC1 [RN 1 dihydrochloride]"
measured_target = "WPMY1-TUBA1B-RELA"
readout_number = 1

[[record]]
molecule = "C[C@@H](N)[C@H]1CC[C@H](C(=O)Nc2ccncc2)CC1"
measured_target = "WPMY1-TUBA1B-RELA"
readout_number = 1


Here's the next entry for you.
In: Which value of phenotypically active has been reported for Clc1ccc(C(c2ccc(Cl)cc2)[n+]2ccn(CC(OCc3ccc(Cl)cc3Cl)c3ccc(Cl)cc3Cl)c2)cc1 (centres undefined) [Calmidazolium chloride] in the records?
Out: 1

###

- Tested on: HepG2-CANX-COX4
- ASSAY_DETAILS: phenotypically active (imaging signature differs from DMSO and reproducible) at any of 0.3-9 uM (binary (1 = active, 0 = inactive)); higher = active
- SETUP_CONDITIONS: treatment time: 24 h
Outcome field: choose from active, inactive

Worked examples, 4 compounds total:
[[record]]
compound = "COCc1c(C(C)C)nc(C(C)C)c(/C=C/[C@@H](O)C[C@@H](O)CC(=O)O)c1-c1ccc(F)cc1"
cat = "active"

[[record]]
compound = "CS(=O)(=O)c1ccc(-c2nnc(/C=C/c3nnc(-c4ccc(C#N)cc4)o3)n2-c2ccccc2Cl)nc1"
cat = "inactive"

[[record]]
compound = "Nc1ncnc2c1ncn2[C@@H]1O[C@H](CO)C[C@H]1O [Cordycepin]"
cat = "inactive"

[[record]]
compound = "CCN1C(=O)NC(c2ccccc2)C1=O (stereo not given)"
cat = "inactive"


In: Per the assay record, what outcome was assigned to `O=C1/C(=C\c2ccncc2)CCC/C1=C\c1ccncc1` ?
Out: active

In: Also check Cc1noc(C)c1-c1cc(O)cc(C(O)c2ccccc2)c1 (stereo not given)
Out: active

In: Also check CN1C(=O)CC(C)(c2ccccc2)C1=O (stereo not given) [methsuximide]
Out: inactive

In: Also check `Cc1ccc(Nc2nnc(-c3ccc([N+](=O)[O-])cc3)o2)cc1Cl`
Out: inactive

In: Also check `Clc1ccc(N/N=C(\c2ccccc2)c2ccccn2)nc1`
Out: active

In: Also check `COc1ccc(-c2ccc3cc(C(=O)O)ccc3c2)cc1C12CC3CC(CC(C3)C1)C2`
Out: inactive

###

- Test system: A549-ACTB-RAB5A
- ASSAY_DETAILS: phenotypically active (imaging signature differs from DMSO and reproducible) at any of 0.3-9 uM (binary (1 = active, 0 = inactive)); higher = active
- SETUP_CONDITIONS: treatment time: 24 h
Where a name gives a salt, the structure may show the parent alone.
PARAMETER: phenotypically active
Note: the reply should be a number with no unit written.

In: Which value of phenotypically active has been reported for COc1cc(OC)c2cc(-c3ccncc3)cnc2c1 [DMPQ dihydrochloride] in the records?
Out: 1

In: Also check O=C(O)C(CO)c1ccccc1 (stereo unspecified) [Tropic acid]
Out: 0

In: Also check `Cc1cc(Nc2cc(N3CCN(C)CC3)nc(Sc3ccc(NC(=O)C4CC4)cc3)n2)[nH]n1`
Out: 1

In: Also check `O=C1/C(=C\c2ccncc2)CCC/C1=C\c1ccncc1`
Out: 1

In: Also check `Cc1c(CN2CCN(C(=O)[C@H](C)O)CC2)sc2c(N3CCOCC3)nc(-c3cnc(N)nc3)nc12`
Out: 1

In: Also check CCSc1ccc2c(c1)N(CCCN1CCN(C)CC1)c1ccccc1S2 [thiethylperazine]
Out: 1

In: Also check CC(C)(C)c1cc(NC(=O)Nc2ccc(-c3cn4c(n3)sc3cc(OCCN5CCOCC5)ccc34)cc2)no1 [quizartinib]
Out: 1

In: Also check CC(C)NCCCC1(C(N)=O)c2ccccc2-c2ccccc21 [indecainide]
Out: 0

In: Also check `Brc1c(Br)c(Br)c2[nH]nnc2c1Br`
Out: 0

In: Also check CC(C)(C)NC(=O)[C@@H]1CN(Cc2cccnc2)CCN1C[C@@H](O)C[C@@H](Cc1ccccc1)C(=O)N[C@H]1c2ccccc2C[C@H]1O [indinavir]
Out: 0

In: Also check CNC(=O)c1cc(Oc2ccc(NC(=O)Nc3ccc(Cl)c(C(F)(F)F)c3)cc2)ccn1 [sorafenib]
Out: 1

In: Also check COc1cc2nc(N3CCN(C(=O)c4ccco4)CC3)nc(N)c2cc1OC [prazosin]
Out: 0

Entry source: the supplement of paper PMC7411054
